B1: HDV Ribozyme (parent)
chain: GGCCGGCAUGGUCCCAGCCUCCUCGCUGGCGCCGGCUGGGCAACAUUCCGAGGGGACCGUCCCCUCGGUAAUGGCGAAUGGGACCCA

- Variants of: B1
- method: self-cleavage, relative activity (ratio to wild type); higher = more cleavage; co-transcriptional
The threshold is inclusive: self-cleavage of exactly 0.2 counts as rule met; values below receive rule not met.

- mutation.key: "G1U C7U"
  assigned.class: "rule met"
- mutation.key: "G35A U79G"
  assigned.class: "rule met"
- mutation.key: "G39C A45G"
  assigned.class: "rule not met"
- mutation.key: "C13G C33G"
  assigned.class: "rule not met"
- mutation.key: "C13U C61A"
  assigned.class: "rule met"
- mutation.key: "C57U G76A"
  assigned.class: "rule met"
- mutation.key: "G1U C3G"
  assigned.class: "rule met"
- mutation.key: "G17C G73A"
  assigned.class: "rule not met"
- mutation.key: "G52U C85A"
  assigned.class: "rule met"
- mutation.key: "G52U G54A"
  assigned.class: "rule met"
- mutation.key: "C62A A83C"
  assigned.class: "rule met"
- mutation.key: "G11A C48A"
  assigned.class: "rule met"
- mutation.key: "G6U C49G"
  assigned.class: "rule met"
- mutation.key: "G11C A43C"
  assigned.class: "rule not met"
- mutation.key: "C21A G68C"
  assigned.class: "rule not met"
- mutation.key: "G39U A70G"
  assigned.class: "rule met"
- mutation.key: "C41U C75A"
  assigned.class: "rule not met"
- mutation.key: "U46G G59A"
  assigned.class: "rule met"
- mutation.key: "U9C U23A"
  assigned.class: "rule met"
- mutation.key: "U23G G80U"
  assigned.class: "rule not met"
- mutation.key: "G11A G81A"
  assigned.class: "rule not met"
